Measured values drawn from ChEMBL document CHEMBL1151824 for this set.

system: Pseudomonas aeruginosa; assay: Antimicrobial activity against Pseudomonas aeruginosa ATCC 27853 after 24 hrs by broth dilution technique; format: functional; settings: Pseudomonas aeruginosa, ATCC 27853, 24 h; read-out: MIC

Molecule	Quantity unit	Value qualifier	MIC
CC/C=C/C12C3CC4C5[C@@H](C)/C(=C6/OC(=O)C(C)=C6OC)O[C@]5(O3)C1CCN42 (stereo not given in full)	µg/mL	≥	125
COC1=C(C)C(=O)O/C1=C1\O[C@@]23O[C@H]4C[C@@H]([C@H]2[C@@H]1C)N1CC[C@H]3[C@@]41C (stereo in doubt; 15) [METHYLSTEMOFOLINE]	µg/mL	≥	125
COC1=C(C)C(=O)O/C1=C1\O[C@@]23O[C@H]4C[C@@H]([C@H]2[C@@H]1C)N1CC[C@H]3[C@@]41/C=C/C(C)O (mixture of isomers; 1)	µg/mL	=	62.5
COC1=C(C)C(=O)O/C1=C1\O[C@@]23O[C@H]4C[C@@H]([C@H]2[C@@H]1C)N1CC[C@H]3[C@@]41CC[C@@H](C)O (mixture of isomers)	µg/mL	=	62.5
COC1=C(C)C(=O)O/C1=C1\O[C@@]23O[C@H]4C[C@@H]([C@H]2[C@@H]1C)N1CC[C@H]3[C@@]41CCC(C)O (mixture of isomers)	µg/mL	≥	125
